STUDY_TARGET: Serine/threonine-protein kinase Sgk1 (Homo sapiens) (UniProt O00141)
Sequence (whole entry): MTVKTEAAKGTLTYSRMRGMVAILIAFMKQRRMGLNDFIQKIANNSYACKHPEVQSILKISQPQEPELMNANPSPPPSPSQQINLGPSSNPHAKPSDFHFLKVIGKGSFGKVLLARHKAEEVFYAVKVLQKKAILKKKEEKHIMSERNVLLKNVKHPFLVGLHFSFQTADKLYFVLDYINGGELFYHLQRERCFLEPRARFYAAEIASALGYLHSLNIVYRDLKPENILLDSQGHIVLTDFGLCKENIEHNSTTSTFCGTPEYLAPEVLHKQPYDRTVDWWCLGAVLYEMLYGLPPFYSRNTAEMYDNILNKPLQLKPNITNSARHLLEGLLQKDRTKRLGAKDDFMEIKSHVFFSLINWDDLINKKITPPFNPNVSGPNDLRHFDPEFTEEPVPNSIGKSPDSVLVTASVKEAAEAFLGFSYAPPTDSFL
ASSAY_REMARKS: Inhibition of human SGK1 assessed as residual activity at 0.1 uM relative to control
PARAMETER_MEASURED: Activity (%)

> print(dat)
                                smiles.text  measured.value
1  COc1ccc2c(c1)c(/C=C1\C(=O)Nc3ccc(S(N)(=O)=O)cc31)cn2C              80
2  CN(C)S(=O)(=O)c1ccc2c(c1)/C(=C/c1cn(C)c3ccc(O)cc13)C(=O)N2              87
3  COc1ccc2[nH]cc(/C=C3\C(=O)Nc4ccc(S(N)(=O)=O)cc43)c2c1              85
4  COc1ccc2c(c1)c(/C=C1\C(=O)Nc3ccc(S(=O)(=O)N(C)C)cc31)cn2C              90
5  Cn1cc(/C=C2\C(=O)Nc3ccc(S(N)(=O)=O)cc32)c2ccccc21              81
6  CNS(=O)(=O)c1ccc2c(c1)/C(=C/c1cn(C)c3ccc(OC)cc13)C(=O)N2              94

Data provenance: ChEMBL document CHEMBL4765228
